Biological target: Cav2.3 (Homo sapiens, UniProt Q15878)
Sequence (Q15878 whole entry, looked up): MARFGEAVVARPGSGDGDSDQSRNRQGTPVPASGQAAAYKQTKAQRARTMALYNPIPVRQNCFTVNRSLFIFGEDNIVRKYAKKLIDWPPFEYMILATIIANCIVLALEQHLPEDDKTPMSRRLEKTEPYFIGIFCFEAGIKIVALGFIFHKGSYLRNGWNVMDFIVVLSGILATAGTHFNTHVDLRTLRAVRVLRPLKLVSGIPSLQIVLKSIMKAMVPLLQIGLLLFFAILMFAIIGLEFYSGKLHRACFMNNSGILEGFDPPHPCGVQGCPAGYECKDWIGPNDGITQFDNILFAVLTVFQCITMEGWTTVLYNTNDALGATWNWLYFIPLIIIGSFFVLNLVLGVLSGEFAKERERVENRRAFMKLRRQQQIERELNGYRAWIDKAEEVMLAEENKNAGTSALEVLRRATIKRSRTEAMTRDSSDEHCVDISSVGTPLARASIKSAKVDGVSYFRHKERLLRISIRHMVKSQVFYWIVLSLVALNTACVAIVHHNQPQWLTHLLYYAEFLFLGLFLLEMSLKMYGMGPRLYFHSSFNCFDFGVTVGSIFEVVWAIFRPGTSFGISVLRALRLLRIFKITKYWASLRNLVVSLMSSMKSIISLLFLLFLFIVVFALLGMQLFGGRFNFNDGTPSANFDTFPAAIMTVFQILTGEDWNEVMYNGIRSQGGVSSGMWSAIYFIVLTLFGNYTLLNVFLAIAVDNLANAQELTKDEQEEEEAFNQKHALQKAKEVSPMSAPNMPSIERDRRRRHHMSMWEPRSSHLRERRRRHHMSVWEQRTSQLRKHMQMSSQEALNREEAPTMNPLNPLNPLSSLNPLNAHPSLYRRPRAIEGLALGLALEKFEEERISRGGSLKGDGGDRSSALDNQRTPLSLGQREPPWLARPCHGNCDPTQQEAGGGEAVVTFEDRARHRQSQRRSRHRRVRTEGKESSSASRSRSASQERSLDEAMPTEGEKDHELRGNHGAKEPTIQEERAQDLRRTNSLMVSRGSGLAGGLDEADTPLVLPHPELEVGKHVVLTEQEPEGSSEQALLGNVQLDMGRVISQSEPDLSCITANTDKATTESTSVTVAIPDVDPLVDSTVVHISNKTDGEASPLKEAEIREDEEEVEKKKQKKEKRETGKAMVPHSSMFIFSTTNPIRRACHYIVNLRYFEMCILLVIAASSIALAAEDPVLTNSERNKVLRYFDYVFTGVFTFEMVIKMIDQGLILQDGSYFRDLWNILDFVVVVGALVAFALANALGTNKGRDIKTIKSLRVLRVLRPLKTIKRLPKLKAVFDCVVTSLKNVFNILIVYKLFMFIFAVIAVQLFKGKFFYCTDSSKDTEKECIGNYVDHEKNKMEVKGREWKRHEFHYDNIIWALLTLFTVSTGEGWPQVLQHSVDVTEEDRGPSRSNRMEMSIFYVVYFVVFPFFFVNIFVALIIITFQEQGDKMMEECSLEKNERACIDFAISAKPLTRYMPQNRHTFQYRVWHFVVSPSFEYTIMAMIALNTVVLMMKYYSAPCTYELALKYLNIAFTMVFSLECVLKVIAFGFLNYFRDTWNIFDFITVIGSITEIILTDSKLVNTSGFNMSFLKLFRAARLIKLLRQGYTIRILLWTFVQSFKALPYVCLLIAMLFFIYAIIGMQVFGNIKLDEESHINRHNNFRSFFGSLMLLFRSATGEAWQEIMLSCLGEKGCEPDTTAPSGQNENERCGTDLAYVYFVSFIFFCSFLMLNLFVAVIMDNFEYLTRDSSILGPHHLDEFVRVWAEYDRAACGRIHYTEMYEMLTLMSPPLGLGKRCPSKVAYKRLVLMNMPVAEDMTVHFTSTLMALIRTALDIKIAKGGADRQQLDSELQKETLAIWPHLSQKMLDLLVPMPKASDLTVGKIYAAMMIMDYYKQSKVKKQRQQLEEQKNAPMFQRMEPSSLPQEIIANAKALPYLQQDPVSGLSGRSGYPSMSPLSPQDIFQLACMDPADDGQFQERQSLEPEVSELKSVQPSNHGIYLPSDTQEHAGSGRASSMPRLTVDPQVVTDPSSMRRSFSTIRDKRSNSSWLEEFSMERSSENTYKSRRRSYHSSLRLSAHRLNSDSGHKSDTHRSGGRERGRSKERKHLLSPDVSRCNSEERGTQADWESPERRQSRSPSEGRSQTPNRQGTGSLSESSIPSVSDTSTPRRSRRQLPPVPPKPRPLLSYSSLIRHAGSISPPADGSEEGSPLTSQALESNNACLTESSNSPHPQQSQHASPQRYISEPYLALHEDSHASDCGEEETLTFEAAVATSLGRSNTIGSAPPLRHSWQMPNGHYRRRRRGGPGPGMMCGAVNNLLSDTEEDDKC
Assay: Human Cav2.3 channel calcium-influx assay
Type: cell-based
Settings: Fluo8 fluorescence, HEK-293 T-Rex/Kir2.1/Cav2.3e cells, without pluronic acid, read-out: Cav2.3 (pIC50) (converted)
Description: HEK-293 T-Rex cells were transfected with pcDNA3.1-Kir2.1 to generate a stable cell line. After antibiotic selection, the obtained stable pools were analysed using FLIPR^TETRA (membrane potential assay), and a limiting dilution was performed and a HEK-293 T-Rex/Kir2.1 clone was selected. […] Data analysis was performed with Genedata Screener® software and reported compounds activity as % effect in relation to the normalization standards. The Kinetic Response Value (KRV) is calculated as follows: […]
I'd appreciate it if you marked entries 1 when IC50 is lower than 600 nM and 0 when it is not.

Example cases with answers are listed next.
Item CCN([C@H](c1ccc(F)cc1)C(F)(F)F)S(=O)(=O)c1nn(CC)c2cccnc12 : IC50 beneath 600 nM, strictly?
0

Same thing, different molecule: CN([C@H](c1ccc(F)cc1)C(F)(F)F)S(=O)(=O)c1cncc(C#N)c1
1

Same thing, different molecule: CCN([C@H](c1ccc(F)cc1)C(F)(F)F)S(=O)(=O)c1n[nH]c2cccnc12
0

Same thing, different molecule: CCN(C(c1ccc(F)cc1)C(F)(F)F)S(=O)(=O)c1cc(N2CCOCC2)cs1 (stereo not shown)
0

***
Item CN(C(c1ccc(F)cc1)C(F)(F)F)S(=O)(=O)c1cncc(C#N)c1 (racemic) : IC50 beneath 600 nM, strictly?
1

Same thing, different molecule: CN([C@@H](c1ccc(F)cc1)C(F)(F)F)S(=O)(=O)c1ccc(F)s1 (stereo in doubt)
0

###

Target: Cav2.3 (Homo sapiens)
Experiment: Whole-cell patch clamp assay (QPatch) in HEK-293 T-Rex/Kir2.1/Cav2.3e-β4-α2δ1 cells
Type: cell-based
Settings: QPatch 16X, room temperature, mean ± S.E, read-out: Cav2.3 (pIC50) (converted)
I'd appreciate it if you marked entries YES when IC50 is lower than 0.4 µM and NO when it is not.

Example cases with answers are listed next.
Item CCN([C@H](c1ccc(F)cc1)C(F)(F)F)S(=O)(=O)c1ccc(C#N)s1 : IC50 beneath 0.4 µM, strictly?
NO

Same thing, different compound: CCN([C@@H](c1ccc(F)cc1)C(F)(F)F)S(=O)(=O)c1ccc(C)s1
NO

Same thing, different compound: CN([C@H](c1ccc(Cl)cc1)C(F)(F)F)S(=O)(=O)c1cncc(F)c1
YES

Same thing, different compound: CCN([C@H](c1ccc(F)cc1)C(F)(F)F)S(=O)(=O)C1CCOCC1
YES

Same thing, different compound: CN([C@H](c1ccc(Cl)cc1)C(F)(F)F)S(=O)(=O)c1ccc2nccn2c1
YES

***
Item CN([C@H](c1ccc(Cl)cc1)C(F)(F)F)S(=O)(=O)c1cncc(C#N)c1 : IC50 beneath 0.4 µM, strictly?
YES

Same thing, different compound: CCN([C@H](c1ccc(F)cc1)C(F)(F)F)S(=O)(=O)c1ccn2ccnc2c1
YES

###

A collection of compounds and their measured IC50
Molecular target: Cav2.3 (Homo sapiens)
Assay: Human Cav2.3 channel calcium-influx assay
Assay type: cell-based
Settings: Fluo8 fluorescence, HEK-293 T-Rex/Kir2.1/Cav2.3e cells, without pluronic acid, read-out: Cav2.3 (pIC50) (converted)
Put down the number, then write its unit next to it.

Report IC50 for CN([C@H](c1ccc(Cl)cc1)C(F)(F)F)S(=O)(=O)c1cnc2nsnc2c1 [Example 179] tested on Cav2.3 (Homo sapiens).
661 nM

Same thing, different compound: CCN(C(c1ccc(F)cc1)C(F)(F)F)S(=O)(=O)c1ncc(C#N)s1 (stereo not shown) [Example 80]
447 nM

Same thing, different compound: CCN([C@H](c1ccc(F)cc1)C(F)(F)F)S(=O)(=O)c1cnc2nc[nH]c2c1 [Example 156]
204 nM
